Attribution: patent US20240342292A1

- Tgt: L858R/T790M/C797S EGFR (Homo sapiens, UniProt P00533, C797S/L858R/T790M)
- Construct: expressed in transfected cells; host or cells: H1975 clone #25 (lentiviral over-expression, endogenous EGFR knocked out by sgRNA)
- Sequence (P00533 25-1210 T790M/C797S/L858R): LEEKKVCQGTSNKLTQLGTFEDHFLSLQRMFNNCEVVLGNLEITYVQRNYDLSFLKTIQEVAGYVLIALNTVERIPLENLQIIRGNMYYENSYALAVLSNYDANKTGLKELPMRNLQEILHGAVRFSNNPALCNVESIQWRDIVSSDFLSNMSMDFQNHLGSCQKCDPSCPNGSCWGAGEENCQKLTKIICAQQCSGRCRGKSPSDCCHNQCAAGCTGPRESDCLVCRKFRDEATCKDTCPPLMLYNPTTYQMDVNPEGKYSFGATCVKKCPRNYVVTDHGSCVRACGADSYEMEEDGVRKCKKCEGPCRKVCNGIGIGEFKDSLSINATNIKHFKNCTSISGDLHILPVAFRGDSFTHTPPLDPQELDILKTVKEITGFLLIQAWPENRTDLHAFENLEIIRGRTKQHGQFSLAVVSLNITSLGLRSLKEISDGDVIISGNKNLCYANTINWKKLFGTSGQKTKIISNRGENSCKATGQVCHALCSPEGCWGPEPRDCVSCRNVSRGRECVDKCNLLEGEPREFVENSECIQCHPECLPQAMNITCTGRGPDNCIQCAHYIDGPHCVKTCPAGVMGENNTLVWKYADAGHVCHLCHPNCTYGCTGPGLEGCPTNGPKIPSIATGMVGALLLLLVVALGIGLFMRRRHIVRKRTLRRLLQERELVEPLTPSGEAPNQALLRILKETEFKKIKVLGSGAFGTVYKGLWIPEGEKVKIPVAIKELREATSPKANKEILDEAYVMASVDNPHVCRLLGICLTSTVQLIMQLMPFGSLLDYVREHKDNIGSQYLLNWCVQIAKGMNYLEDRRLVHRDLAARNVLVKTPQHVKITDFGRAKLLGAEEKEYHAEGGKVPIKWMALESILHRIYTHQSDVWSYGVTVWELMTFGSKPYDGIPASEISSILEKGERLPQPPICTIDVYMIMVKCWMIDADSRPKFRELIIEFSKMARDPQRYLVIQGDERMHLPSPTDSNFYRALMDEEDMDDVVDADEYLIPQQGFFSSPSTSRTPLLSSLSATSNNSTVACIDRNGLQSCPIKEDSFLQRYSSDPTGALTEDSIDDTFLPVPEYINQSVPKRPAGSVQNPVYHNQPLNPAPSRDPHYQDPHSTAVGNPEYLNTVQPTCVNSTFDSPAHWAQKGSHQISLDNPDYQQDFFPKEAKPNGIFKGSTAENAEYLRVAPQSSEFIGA
- Protocol details: EGFR degradation HTRF assay in H1975-clone #25 (LTC) cells
- Assay type: cell-based
- Measurement conditions: H1975 # 25-LTC (L858R/T790M/C797S), 16h treatment, HTRF
Readout kind: DC50 (nM)

[[record]]
molecule = "Cc1cc2cc(n1)-c1cnn(C)c1OCCC[C@@H](C)CN1/C(=N/C2=O)Nc2ccc(C(=O)N(C)[C@H]3CCN(CCNc4cc(F)c([C@H]5CCC(=O)NC5=O)c(F)c4)C[C@@H]3F)cc21 [Example 352]"
units = "nM"
test_result = 0.847

[[record]]
molecule = "Cc1cc2cc(n1)-c1cnn(C)c1OCCC[C@@H](C)CN1/C(=N/C2=O)Nc2ccc(C(=O)N(C)CC(F)(F)C3CCN(CCc4cc(F)c([C@H]5CCC(=O)NC5=O)c(F)c4)CC3)cc21 [Example 275]"
units = "nM"
test_result = 1.01

[[record]]
molecule = "Cc1cc2cc(n1)-c1cnn(C)c1OCCC[C@@H](C)CN1/C(=N/C2=O)Nc2ccc(C3CCN(C(=O)C4CN(c5cc(F)c([C@H]6CCC(=O)NC6=O)c(F)c5)C4)CC3)cc21 [Example 158]"
units = "nM"
test_result = 0.852

[[record]]
molecule = "Cc1cc2cc(n1)-c1cnn(C)c1OCC[C@H]1C[C@@H]1CN1/C(=N/C2=O)Nc2ccc(N3CCN(C4CCN(c5cnc(C6CCC(=O)NC6=O)cc5C)CC4)CC3)cc21 (some centres unmarked) [Example 463]"
units = "nM"
test_result = 0.624

[[record]]
molecule = "Cc1cc2cc(n1)-c1cnn(C)c1OCCC[C@@H](C)CN1/C(=N/C2=O)Nc2ccc(CN3CC4CC(C3)N4C(=O)[C@@H]3CCN(c4cc(F)c([C@H]5CCC(=O)NC5=O)c(F)c4)C3)cc21 [Example 163]"
units = "nM"
test_result = 1.14


====

- Tgt: L858R/T790M/C797S EGFR (Homo sapiens, UniProt P00533, C797S/L858R/T790M)
- Construct: expressed in transfected cells; host or cells: H1975 clone #25 (lentiviral over-expression, endogenous EGFR knocked out by sgRNA)
- Protocol details: EGFR degradation HTRF assay in H1975-clone #25 (LTC) cells
- Type: cell-based
- Measurement conditions: H1975 # 25-LTC (L858R/T790M/C797S), 16h treatment, HTRF
Readout kind: DC50 (nM)

[[record]]
mol = "Cc1cc2cc(n1)-c1cnn(C)c1OCCC[C@@H](C)CN1/C(=N/C2=O)Nc2ccc(C(=O)N(C)C3CCN(C4CCN(c5cc(F)c([C@H]6CCC(=O)NC6=O)c(F)c5)CC4)CC3)cc21"
readout_kind = "DC50"
units = "nM"
test_result = 0.454

[[record]]
mol = "CO[C@@H]1CN(CCc2cc(F)c([C@H]3CCC(=O)NC3=O)c(F)c2)CC[C@H]1NC(=O)c1ccc2c(c1)N1C[C@H](C)CCCOc3c(cnn3C)-c3cc(cc(C)n3)C(=O)/N=C/1N2"
readout_kind = "DC50"
units = "nM"
test_result = 0.289

[[record]]
mol = "Cc1cc2cc(n1)-c1cnn(C)c1OCC[C@H]1C[C@@H]1CN1/C(=N/C2=O)Nc2ccc(N3CCC(N4CCN(c5cc(F)c([C@H]6CCC(=O)NC6=O)c(F)c5)CC4=O)CC3)cc21"
readout_kind = "DC50"
units = "nM"
test_result = 0.809


====

- Tgt: L858R/T790M/C797S EGFR (Homo sapiens, UniProt P00533, C797S/L858R/T790M)
- Construct: expressed in transfected cells; host or cells: H1975 clone #25 (lentiviral over-expression, endogenous EGFR knocked out by sgRNA)
- Protocol details: EGFR degradation HTRF assay in H1975-clone #25 (LTC) cells
- Format: cell-based
- Measurement conditions: H1975 # 25-LTC (L858R/T790M/C797S), 16h treatment, HTRF
Readout kind: DC50

[[record]]
molecule = "Cc1cc2cc(n1)-c1cnn(C)c1OCCC[C@@H](C)CN1/C(=N/C2=O)Nc2ccc(C(=O)N3CC(N(C)CCc4cc(F)c([C@H]5CCC(=O)NC5=O)c(F)c4)C3)cc21"
test_result = "0.742 nM"

[[record]]
molecule = "Cc1cc2cc(n1)-c1cnn(C)c1OCCC[C@@H](C)CN1/C(=N/C2=O)Nc2ccc(N3CC4(CCN(CC5CN(c6cc(F)c([C@H]7CCC(=O)NC7=O)c(F)c6)C5)CC4)CC3=O)cc21"
test_result = "1.65 nM"

[[record]]
molecule = "Cc1cc2cc(n1)-c1cnn(C)c1OCCC[C@@H](C)CN1/C(=N/C2=O)Nc2ccc(C(=O)N(C)C3CN(C4CCN(c5cc(F)c([C@H]6CCC(=O)NC6=O)c(F)c5)CC4)C3)cc21"
test_result = "0.459 nM"

[[record]]
molecule = "Cc1cc2cc(n1)-c1cnn(C)c1OCCC[C@@H](C)CN1/C(=N/C2=O)Nc2ccc(C(=O)N(C)C[C@@H]3CCN(CCc4cc(F)c([C@H]5CCC(=O)NC5=O)c(F)c4)CC3(F)F)cc21"
test_result = "4.58 nM"

[[record]]
molecule = "Cc1cc2cc(n1)-c1cnn(C)c1OCCC[C@@H](C)CN1/C(=N/C2=O)Nc2ccc(N3CCN(CCc4ccc(C5CCC(=O)NC5=O)nc4C)CC3)cc21 (some centres unmarked)"
test_result = "0.34 nM"


====

- Tgt: L858R/T790M/C797S EGFR (Homo sapiens, UniProt P00533, C797S/L858R/T790M)
- Construct: expressed in transfected cells; host or cells: H1975 clone #25 (lentiviral over-expression, endogenous EGFR knocked out by sgRNA)
- Protocol details: EGFR degradation HTRF assay in H1975-clone #25 (LTC) cells
- Type: cell-based
- Measurement conditions: H1975 # 25-LTC (L858R/T790M/C797S), 16h treatment, HTRF
Grouping key: DC50. Bins: class 0: < 0.6 nM; class 1: ≥ 0.6 nM and < 1 nM; class 2: ≥ 1 nM

[[record]]
compound = "CO[C@@H]1CN(CCc2cc(F)c([C@H]3CCC(=O)NC3=O)c(F)c2)CC[C@H]1N(C)C(=O)c1ccc2c(c1)N1C[C@H](C)CCCOc3c(cnn3C)-c3cc(cc(C)n3)C(=O)/N=C/1N2 [Example 254]"
assigned_class = "class 1"

[[record]]
compound = "Cc1cc2cc(n1)-c1cnn(C)c1OCCC[C@@H](C)CN1/C(=N/C2=O)Nc2ccc(C(=O)N(C)[C@@H]3C[C@H]4CC[C@@H](C3)N4CCc3cc(F)c([C@H]4CCC(=O)NC4=O)c(F)c3)cc21 [Example 265]"
assigned_class = "class 0"

[[record]]
compound = "Cc1cc2cc(n1)-c1cnn(C)c1OCCC[C@@H](C)CN1/C(=N/C2=O)Nc2ccc(C(=O)N(C)[C@@H]3CCN(CCc4cc(F)c([C@H]5CCC(=O)NC5=O)c(F)c4)C[C@H]3C)cc21 [Example 257]"
assigned_class = "class 0"

[[record]]
compound = "Cc1cc2cc(n1)-c1cnn(C)c1OCCC[C@@H](C)CN1/C(=N/C2=O)Nc2ccc(CN3CC4(CCN(C(=O)[C@@H]5CCN(c6cc(F)c([C@H]7CCC(=O)NC7=O)c(F)c6)C5)CC4)C3)cc21 [Example 84]"
assigned_class = "class 2"

[[record]]
compound = "Cc1cc2cc(n1)-c1cnn(C)c1OCCC[C@@H](C)CN1/C(=N/C2=O)Nc2ccc(CN3CCC(N4CCN(C(=O)[C@@H]5CCN(c6cc(F)c([C@H]7CCC(=O)NC7=O)c(F)c6)C5)CC4)CC3)cc21 [Example 6]"
assigned_class = "class 2"

[[record]]
compound = "Cc1cc2cc(n1)-c1cnn(C)c1OCCC[C@@H](C)CN1/C(=N/C2=O)Nc2ccc(CN3CCC4(CC3)CN(C(=O)[C@H]3CN(c5cc(F)c([C@H]6CCC(=O)NC6=O)c(F)c5)CC3(C)C)C4)cc21 [Example 26]"
assigned_class = "class 2"

[[record]]
compound = "Cc1cc2cc(n1)-c1cnn(C)c1OCCC[C@@H](C)CN1/C(=N/C2=O)Nc2ccc(N3CCN([C@H]4CCN(c5ccc([C@H]6CCC(=O)NC6=O)nc5C)C[C@@H]4F)CC3)cc21 [Example 440]"
assigned_class = "class 1"


====

- Tgt: L858R/T790M/C797S EGFR (Homo sapiens, UniProt P00533, C797S/L858R/T790M)
- Construct: expressed in transfected cells; host or cells: H1975 clone #25 (lentiviral over-expression, endogenous EGFR knocked out by sgRNA)
- Protocol details: EGFR degradation HTRF assay in H1975-clone #25 (LTC) cells
- Assay type: cell-based
- Measurement conditions: NCI-H1975, H1975 # 25-LTC (L858R/T790M/C797S), 16h treatment, maximum percentage of degradation
Mark yes for Dmax under 90%, no if at or over.

[[record]]
compound = "Cc1cc2cc(n1)-c1cnn(C)c1OCCC[C@@H](C)CN1/C(=N/C2=O)Nc2ccc(C(=O)N[C@@H]3CCN(CCc4cc(F)c([C@H]5CCC(=O)NC5=O)c(F)c4)[C@H](C)C3)cc21"
assigned_class = "no"

[[record]]
compound = "Cc1cc2cc(n1)-c1cnn(C)c1OCC[C@H]1C[C@@H]1CN1/C(=N/C2=O)Nc2ccc(N3CCN(C4CCN(c5ccc(C6CCC(=O)NC6=O)nc5C)CC4)CC3)cc21 (stereo partly shown)"
assigned_class = "no"

[[record]]
compound = "Cc1cc2cc(n1)-c1cnn(C)c1OCCC[C@@H](C)CN1/C(=N/C2=O)Nc2ccc(N3CCN([C@H]4CCN(c5ccc([C@H]6CCC(=O)NC6=O)nc5C)C[C@@H]4F)CC3)cc21"
assigned_class = "no"

[[record]]
compound = "Cc1cc2cc(n1)-c1cnn(C)c1OCCC[C@@H](C)CN1/C(=N/C2=O)Nc2ccc(CN3CCN(C(=O)C4CCN(c5cc(F)c([C@H]6CCC(=O)NC6=O)c(F)c5)CC4)CC3)cc21"
assigned_class = "yes"

[[record]]
compound = "Cc1cc2cc(n1)-c1cnn(C)c1OCCC[C@@H](C)CN1/C(=N/C2=O)Nc2ccc(C(=O)N(C)[C@@H]3CCN(CCc4cc(F)c([C@H]5CCC(=O)NC5=O)c(F)c4)C3)cc21"
assigned_class = "yes"

[[record]]
compound = "CCN(C(=O)c1ccc2c(c1)N1C[C@H](C)CCCOc3c(cnn3C)-c3cc(cc(C)n3)C(=O)/N=C/1N2)C1CCN(C2CCN(c3cc(F)c([C@H]4CCC(=O)NC4=O)c(F)c3)CC2)CC1"
assigned_class = "no"

[[record]]
compound = "Cc1cc2cc(n1)-c1cnn(C)c1OCCC[C@@H](C)CN1/C(=N/C2=O)Nc2ccc(C3CCN(C(=O)[C@H]4CN(c5cc(F)c([C@H]6CCC(=O)NC6=O)c(F)c5)CC4(C)C)CC3)cc21"
assigned_class = "yes"

[[record]]
compound = "Cc1cc2cc(n1)-c1cnn(C)c1OCCC[C@@H](C)CN1/C(=N/C2=O)Nc2ccc(CN3CCN(C[C@@H]4CCN(c5cc(F)c([C@H]6CCC(=O)NC6=O)c(F)c5)C4)CC3)cc21"
assigned_class = "yes"

[[record]]
compound = "Cc1cc2cc(n1)-c1cnn(C)c1OCCC[C@@H](C)CN1/C(=N/C2=O)Nc2ccc(C(=O)N(CCN3CCC(c4cc(F)c([C@H]5CCC(=O)NC5=O)c(F)c4)CC3)C(C)C)cc21"
assigned_class = "yes"

[[record]]
compound = "Cc1cc2cc(n1)-c1cnn(C)c1OCCC[C@@H](C)CN1/C(=N/C2=O)Nc2ccc(CN3CCC4(CC3)CCN(CC3CCN(c5ccc6c(c5)CN(C5CCC(=O)NC5=O)C6=O)CC3)CC4)cc21 (stereo partly shown)"
assigned_class = "yes"

[[record]]
compound = "Cc1cc2cc(n1)-c1cnn(C)c1OCCC[C@@H](C)CN1/C(=N/C2=O)Nc2ccc(C3CCN(CCc4cc(F)c([C@H]5CCC(=O)NC5=O)c(F)c4)CC3)cc21"
assigned_class = "yes"

[[record]]
compound = "Cc1cc2cc(n1)-c1cnn(C)c1OCCC[C@@H](C)CN1/C(=N/C2=O)Nc2ccc(N3CCN(CC4CCN(c5cc(F)c([C@H]6CCC(=O)NC6=O)c(F)c5)CC4)CC3)cc21"
assigned_class = "yes"

[[record]]
compound = "Cc1cc2cc(n1)-c1cnn(C)c1OCCC[C@@H](C)CN1/C(=N/C2=O)Nc2ccc(N3CCN(C[C@H]4CCN(c5cc(F)c([C@H]6CCC(=O)NC6=O)c(F)c5)C4)CC3=O)cc21"
assigned_class = "yes"

[[record]]
compound = "Cc1cc2cc(n1)-c1cnn(C)c1OCCC[C@@H](C)CN1/C(=N/C2=O)Nc2ccc(CN3CCC4(CC3)CN(C(=O)[C@H]3CN(c5cc(F)c([C@H]6CCC(=O)NC6=O)c(F)c5)CC3(C)C)C4)cc21"
assigned_class = "no"

